# PROTOCOL_DESCRIPTION: Plasma pharmacokinetics of CTN HCl formulation, 164.4 mg or 328.8 mg, First Day and Fifth Day (Table 12)
# Type: in vivo, human
# MEASUREMENT_CONDITIONS: human, plasma, oral, 328.8 mg, First Day, n = 8, mean; read-out: C16 hr
Structures can show the parent of a compound that is named as a salt.
OBSERVABLE: concentration at 16 h (ng/mL)
Record the value in ng/mL, omitting the unit from your answer.

**Q:** Which concentration at 16 h reading was recorded for the compound c1ccc2cc([C@]34CNC[C@H]3C4)ccc2c1 [Centanafadine HCl] ?
**A:** 306

* * *

# PROTOCOL_DESCRIPTION: Plasma pharmacokinetics of CTN HCl formulation, 164.4 mg or 328.8 mg, First Day and Fifth Day (Table 12)
# Assay type: in vivo, human
# MEASUREMENT_CONDITIONS: human, plasma, oral, 164.4 mg, First Day, n = 8, mean; read-out: C12 hr
Structures can show the parent of a compound that is named as a salt.
OBSERVABLE: concentration at 12 h
# answer = value followed by unit

**Q:** Which concentration at 12 h reading was recorded for the molecule c1ccc2cc([C@]34CNC[C@H]3C4)ccc2c1 [Centanafadine HCl] ?
**A:** 289 ng/mL

* * *

# PROTOCOL_DESCRIPTION: Plasma pharmacokinetics of CTN HCl formulation, 164.4 mg or 328.8 mg, First Day and Fifth Day (Table 12)
# Format: in vivo, human
# MEASUREMENT_CONDITIONS: human, plasma, oral, 328.8 mg, Fifth Day, n = 8, mean; read-out: C12 hr
Where a name gives a salt, the structure may show the parent alone.
OBSERVABLE: concentration at 12 h (ng/mL)
Record the value in ng/mL, omitting the unit from your answer.

**Q:** Which concentration at 12 h reading was recorded for the molecule c1ccc2cc([C@]34CNC[C@H]3C4)ccc2c1 [Centanafadine HCl] ?
**A:** 646

* * *

# PROTOCOL_DESCRIPTION: Plasma pharmacokinetics of CTN HCl formulation, 164.4 mg or 328.8 mg, First Day and Fifth Day (Table 12)
# Format: in vivo, human
# MEASUREMENT_CONDITIONS: human, plasma, 164.4 mg, First Day, n = 8, mean; read-out: AUC0-24 h
Structures can show the parent of a compound that is named as a salt.
OBSERVABLE: AUC(0-t) (ng·h/mL)
Record the value in ng·h/mL, omitting the unit from your answer.

**Q:** Which AUC(0-t) reading was recorded for the compound c1ccc2cc([C@]34CNC[C@H]3C4)ccc2c1 [Centanafadine HCl] ?
**A:** 6570

* * *

# PROTOCOL_DESCRIPTION: Plasma pharmacokinetics of CTN HCl formulation, 164.4 mg or 328.8 mg, First Day and Fifth Day (Table 12)
# Assay type: in vivo, human
# MEASUREMENT_CONDITIONS: human, plasma, oral, 328.8 mg, Fifth Day, n = 8, mean
Counter-ions that a name gives are not always drawn.
OBSERVABLE: Cmax (ng/mL)
Record the value in ng/mL, omitting the unit from your answer.

**Q:** Which Cmax reading was recorded for the compound c1ccc2cc([C@]34CNC[C@H]3C4)ccc2c1 [Centanafadine HCl] ?
**A:** 2230

* * *

# PROTOCOL_DESCRIPTION: Plasma pharmacokinetics of CTN HCl formulation, 164.4 mg or 328.8 mg, First Day and Fifth Day (Table 12)
# Format: in vivo, human
# MEASUREMENT_CONDITIONS: human, plasma; 328.8 mg, First Day, n = 8, mean
Counter-ions that a name gives are not always drawn.
OBSERVABLE: AUC(0-inf) (ng·h/mL)
Record the value in ng·h/mL, omitting the unit from your answer.

**Q:** Which AUC(0-inf) reading was recorded for the compound c1ccc2cc([C@]34CNC[C@H]3C4)ccc2c1 [Centanafadine HCl] ?
**A:** 16700

* * *

# PROTOCOL_DESCRIPTION: Plasma pharmacokinetics of CTN HCl formulation, 164.4 mg or 328.8 mg, First Day and Fifth Day (Table 12)
# Format: in vivo, human
# MEASUREMENT_CONDITIONS: human, plasma, oral, 328.8 mg, Fifth Day, n = 8, mean; read-out: C1 hr
Counter-ions that a name gives are not always drawn.
OBSERVABLE: concentration at 1 h (ng/mL)
Record the value in ng/mL, omitting the unit from your answer.

**Q:** Which concentration at 1 h reading was recorded for the molecule c1ccc2cc([C@]34CNC[C@H]3C4)ccc2c1 [Centanafadine HCl] ?
**A:** 718

* * *

# PROTOCOL_DESCRIPTION: Plasma pharmacokinetics of CTN HCl formulation, 164.4 mg or 328.8 mg, First Day and Fifth Day (Table 12)
# Assay type: in vivo, human
# MEASUREMENT_CONDITIONS: human, plasma; 164.4 mg, First Day, n = 8, mean
Structures can show the parent of a compound that is named as a salt.
OBSERVABLE: AUC(0-inf)
# answer = value followed by unit

**Q:** Which AUC(0-inf) reading was recorded for the compound c1ccc2cc([C@]34CNC[C@H]3C4)ccc2c1 [Centanafadine HCl] ?
**A:** 7110 ng·h/mL

* * *

# PROTOCOL_DESCRIPTION: Plasma pharmacokinetics of a CTN HCl formulation, 164.4 mg dose (Table 11)
# Assay type: in vivo, human
# MEASUREMENT_CONDITIONS: human, oral, read-out: AUC0-24 h
Where a name gives a salt, the structure may show the parent alone.
OBSERVABLE: AUC(0-t)

**Q:** Which AUC(0-t) reading was recorded for the compound c1ccc2cc([C@]34CNC[C@H]3C4)ccc2c1 [Centanafadine HCl] ?
**A:** 4500 to 7500 ng·h/mL

* * *

# PROTOCOL_DESCRIPTION: Plasma pharmacokinetics of a CTN HCl formulation, 164.4 mg dose (Table 11)
# Format: in vivo, human
# MEASUREMENT_CONDITIONS: human, oral, read-out: AUC0-1 h
Counter-ions that a name gives are not always drawn.
OBSERVABLE: AUC(0-t)

**Q:** Which AUC(0-t) reading was recorded for the compound c1ccc2cc([C@]34CNC[C@H]3C4)ccc2c1 [Centanafadine HCl] ?
**A:** 150 to 500 ng·h/mL

* * *

# PROTOCOL_DESCRIPTION: Plasma pharmacokinetics of CTN HCl formulation, 164.4 mg or 328.8 mg, First Day and Fifth Day (Table 12)
# Format: in vivo, human
# MEASUREMENT_CONDITIONS: human, plasma, oral, 328.8 mg, First Day, n = 8, mean; read-out: C12 hr
Where a name gives a salt, the structure may show the parent alone.
OBSERVABLE: concentration at 12 h (ng/mL)
Record the value in ng/mL, omitting the unit from your answer.

**Q:** Which concentration at 12 h reading was recorded for the compound c1ccc2cc([C@]34CNC[C@H]3C4)ccc2c1 [Centanafadine HCl] ?
**A:** 750

* * *

# PROTOCOL_DESCRIPTION: Plasma pharmacokinetics of a CTN HCl formulation, 164.4 mg dose (Table 11)
# Type: in vivo, human
# MEASUREMENT_CONDITIONS: human, oral, median, read-out: tmax
Counter-ions that a name gives are not always drawn.
OBSERVABLE: Tmax

**Q:** Which Tmax reading was recorded for the molecule c1ccc2cc([C@]34CNC[C@H]3C4)ccc2c1 [Centanafadine HCl] ?
**A:** 4 to 7.5 h

* * *

# PROTOCOL_DESCRIPTION: Plasma pharmacokinetics of CTN HCl formulation, 164.4 mg or 328.8 mg, First Day and Fifth Day (Table 12)
# Type: in vivo, human
# MEASUREMENT_CONDITIONS: human, plasma, oral, 328.8 mg, First Day, n = 8, mean; read-out: C1 hr
# Description: The plasma pharmacokinetics from a CTN HCl formulation having a dose of 164.4 mg or 328.8 mg can be as in Table 12.
Structures can show the parent of a compound that is named as a salt.
OBSERVABLE: concentration at 1 h (ng/mL)
Record the value in ng/mL, omitting the unit from your answer.

**Q:** Which concentration at 1 h reading was recorded for the compound c1ccc2cc([C@]34CNC[C@H]3C4)ccc2c1 [Centanafadine HCl] ?
**A:** 640

* * *

# PROTOCOL_DESCRIPTION: Plasma pharmacokinetics of CTN HCl formulation, 164.4 mg or 328.8 mg, First Day and Fifth Day (Table 12)
# Assay type: in vivo, human
# MEASUREMENT_CONDITIONS: human, plasma, oral, 164.4 mg, First Day, n = 8, mean; read-out: C16 hr
Structures can show the parent of a compound that is named as a salt.
OBSERVABLE: concentration at 16 h
# answer = value followed by unit

**Q:** Which concentration at 16 h reading was recorded for the molecule c1ccc2cc([C@]34CNC[C@H]3C4)ccc2c1 [Centanafadine HCl] ?
**A:** 133 ng/mL
